Entry source: a melting point compilation (Tetko et al.; mined from patent text by program, amines drawn as free bases though some values may be those of a salt)

Below is a list of entries, each paired with its recorded melting point value.

Past entries and their recorded results:
>  <Compound>
C=CCCCS(=O)(=O)CCCC(=O)O

>  <melting point>
104 to 107 °C

$$$$
>  <Compound>
CS(=O)(=O)N1CCC(Nc2ncc3cc(Cc4ccccn4)c(=O)n(C4CCCC4)c3n2)CC1

>  <melting point>
220 to 223 °C

$$$$
>  <Compound>
COC(=O)C(Cc1ccc([N+](=O)[O-])c(OCc2ccccc2)c1)(NC(=O)OC(C)(C)C)C(=O)OC

>  <melting point>
114 to 116 °C

$$$$

What measured melting point goes with Cc1ccc2cccc(OCc3c(Cl)ccc(N4CC(=O)NCC4=O)c3Cl)c2n1 ?
211 to 213 °C

What about this compound? COc1nc2c(C)cc(C)cc2c(-c2ccccc2Cl)c1NC(=O)Nc1cccc(C(F)(F)F)c1
151 to 153 °C

What about this compound? Cc1nc(-c2cccc(C(=O)O)c2)nn1-c1cccc(F)c1
236 to 238 °C

What about this compound? CC1(c2ccccc2)OC(C(=O)O)Oc2ccc(Cl)cc21 (configuration not stated)
144 °C

What about this compound? CC(C)c1cccc(C(C)C)c1N=c1cccc(-c2cccc3ccccc23)[nH]1
142 to 144 °C

What about this compound? CCCNC(=O)c1nc2n(n1)-c1ccc(Cl)cc1C(c1ccccc1Cl)=NC2
110 to 113 °C

What about this compound? Cc1cc(COc2ccc(F)c(C(N)=O)c2F)ccn1
185 to 186 °C

---

Measure: melting point

Past entries and their recorded results:
>  <Molecule>
CN1CCN(c2ccc(Nc3ncc4ccc(-c5ccccc5OCC(=O)OC(C)(C)C)n4n3)cc2)CC1

>  <melting point>
193 to 195 °C

$$$$
>  <Molecule>
CC(=O)Oc1nc(-c2ccc(C)cc2)sc1-c1ccccc1

>  <melting point>
122 to 125 °C

$$$$
>  <Molecule>
N#CC(Cc1ccccc1)=NNc1ccc([N+](=O)[O-])cc1

>  <melting point>
158 to 160 °C

$$$$
>  <Molecule>
C=C1CC2C3CCC4=CC(=O)C=CC4(C)C3=CCC2(C)C1=O (stereo unspecified)

>  <melting point>
157 to 160 °C

$$$$
>  <Molecule>
O=[N+]([O-])c1ccc2snc(-c3ccccc3)c2c1

>  <melting point>
130 °C

$$$$

What measured melting point goes with COCc1nc2c(NCc3c(C)cccc3C)cc(Br)cc2n1C ?
143 to 145 °C

What about this molecule? COCCOCc1nc2cnc3ccc(OCc4ccccc4)cc3c2n1C
128 to 132 °C

What about this molecule? O=C(Cn1c(-c2cccc(Cl)c2)nc2cccnc21)Nc1ccccc1
211 to 212 °C

What about this molecule? CC(=O)NCC1CN(c2ccc(N3CC4CCCN(C(=O)CO)C4C3)c(F)c2)C(=O)O1 (stereo unspecified)
102 to 110 °C

What about this molecule? CC(C)(C)c1cc(C(=O)Nc2ccccc2C(=O)O)cc(C(C)(C)C)c1O
202 to 203 °C

What about this molecule? Cc1ccnc2c1C(=O)CC(c1cccc(Cl)c1Cl)C2 (stereo unspecified)
123 to 124 °C

What about this molecule? CCOC=Nc1c(S(C)=O)c(C#N)nn1-c1c(Cl)cc(C(F)(F)F)cc1Cl (stereo unspecified)
93 to 95 °C

What about this molecule? CCN(CC)c1ccc(S(=O)(=O)N2CCCC2=O)cc1
128 to 130 °C

What about this molecule? c1ccc(COc2ccc(-c3ccc(OCCCN4CCCCC4)cc3)nn2)cc1
138 °C

What about this molecule? CC(C)(C)c1ccc2oc(C(=O)COc3ccc(C(=O)O)cc3)cc2c1
210 to 211 °C

What about this molecule? COc1cc2c(cc1OC)C(=Cc1cc(O)ccc1[N+](=O)[O-])OC2=O
253 °C

What about this molecule? CCC(Oc1cc(OC)ccc1C(=O)c1ccc(OCc2nc(-c3ccccc3)oc2C)cc1)C(=O)O (stereo unspecified)
161 to 162 °C

What about this molecule? Cc1csc2nccn12
165 to 168 °C

What about this molecule? Oc1ccc(C=C2C3=CC=CCC3=CCc3ccccc32)cc1
56.9 °C

What about this molecule? CCOCCn1c(C2CCN(CCc3ccc(C(C)(C)C)cc3)CC2)nc2ccccc21
138 to 140 °C

What about this molecule? CC(=O)Nc1ccc(OCC2CCC=CO2)cc1 (stereo unspecified)
114 to 116 °C

---

Below is a list of entries, each paired with its recorded melting point value.

Past entries and their recorded results:
>  <Molecule>
COc1ccc(N)c(-c2cc3ccccc3[nH]2)c1

>  <melting point>
97 to 99 °C

$$$$
>  <Molecule>
Cc1cccc([N+](=O)[O-])c1C(=O)N[C@@H]1c2cc(OC(F)(F)F)ccc2OC(C)(C)[C@H]1O

>  <melting point>
204 to 206 °C

$$$$
>  <Molecule>
CC1(C)CCCC(=O)N1

>  <melting point>
128 to 131 °C

$$$$
>  <Molecule>
O=Cc1cccn1-c1ccccc1[N+](=O)[O-]

>  <melting point>
119 to 122 °C

$$$$
>  <Molecule>
COc1cccc(CN2CCc3cc(O)ccc3C2)c1OC

>  <melting point>
111 to 115 °C

$$$$

What measured melting point goes with Cc1nn2c(c1C(N)=O)NCCC2 ?
234 to 236 °C

What about this molecule? COc1ccc2c(c1)c(CC(=O)O)c(C)n2-c1nc(SC)nc2ccccc12
175 to 178 °C

What about this molecule? COC(=O)CCCCc1cc2c(n1-c1ccccc1)CC(O)C2 (centres undefined)
83 to 85.5 °C

What about this molecule? O=C(c1ccc(Br)s1)c1c(F)c(F)cc(F)c1F
51 to 54 °C

What about this molecule? CCCCc1nnc(-c2ccc(OC)cc2)n1-c1ccc(OC)cc1
94 °C

What about this molecule? CCCc1nn(C)c(C(N)=O)c1N
96 to 98 °C

What about this molecule? CC(C)C(NC(=O)OCc1ccccn1)C(=O)NC(Cc1ccccc1)C(O)C(Cc1ccccc1)NC(=O)C(NC(=O)OCc1ccccn1)C(C)C (centres undefined)
155 to 156 °C

---

Measure: melting point

>  <Compound>
Cc1oc(-c2ccccc2)nc1/C=C/c1ccc(COc2ccccc2CC(=O)O)cc1

>  <Measure>
melting point

>  <Experimental result>
189 to 190 °C

$$$$
>  <Compound>
CCCCC(CC)C(=O)C=P(c1ccccc1)(c1ccccc1)c1ccccc1 (stereo unspecified)

>  <Measure>
melting point

>  <Experimental result>
106 to 108 °C

$$$$
>  <Compound>
Cc1c(C)c2ccc(OCCCN3CCC(NC(=O)c4ccccc4)CC3)cc2oc1=O

>  <Measure>
melting point

>  <Experimental result>
201 to 203 °C

$$$$
>  <Compound>
Nc1cc(Cl)c(Sc2cccc3cnccc23)cc1N

>  <Measure>
melting point

>  <Experimental result>
200 to 203 °C

$$$$
>  <Compound>
CCOC(=O)C1=C(C)NN=C(C(=O)OC)C1c1cccnc1 (stereo unspecified)

>  <Measure>
melting point

>  <Experimental result>
179 °C

$$$$

Please examine the following record next.
What measured melting point goes with O=C(O)CC1c2cc([N+](=O)[O-])ccc2CCN1C(=O)OCc1ccccc1 (stereo unspecified) ?
160 to 162 °C

---

Measure: melting point

Past entries and their recorded results:
>  <Molecule>
Oc1cccc(-c2c3ccccc3c(Br)c3sc4ccccc4c23)c1

>  <melting point>
110 to 111 °C

$$$$
>  <Molecule>
COc1cc(C(=O)c2nc(Br)c3ccccn23)ccc1[N+](=O)[O-]

>  <melting point>
189 °C

$$$$
>  <Molecule>
CC(=O)NC(C(=O)O)C1c2ccccc2CCc2ccccc21 (centres undefined)

>  <melting point>
220 to 223 °C

$$$$
>  <Molecule>
CCCn1ccc(=O)c(OC(=O)NCC(=O)OCC)c1C

>  <melting point>
96 to 97 °C

$$$$
>  <Molecule>
COc1cccc2c(=O)c(CO)cn(C)c12

>  <melting point>
162 to 167 °C

$$$$
>  <Molecule>
CC(=O)CS(=O)(=O)C(c1ccc(Cl)cc1)c1ccc(Cl)cc1

>  <melting point>
114 to 115 °C

$$$$

What measured melting point goes with COC(=O)[C@@H]1C[C@H](C(=O)O)Nc2cc(Cl)ccc21 (relative stereo) ?
122 to 124 °C

What about this molecule? CCC1CC2C3CCC4=CC(=O)CCC4C3CCC2(C)C1OC(=O)COC(C)=O (centres undefined)
98 to 100 °C

What about this molecule? C#CCN1C=CC(c2c(O)cc(C(C)C(C)CCCCC)cc2OC)CC1 (centres undefined)
113 to 115 °C

What about this molecule? COC(=O)CC(=O)c1cc(F)c(Cl)cc1Cl
77 to 79 °C

What about this molecule? CCCc1c(OCCCCCc2c(Cl)c(Cl)c(Cl)c(OC)c2OC)ccc(C(=O)OC)c1O
84 to 87 °C
